tested on: HCT-116; experiment: Antiproliferative activity against human HCT116 cells assessed as inhibition of cell viability after 72 hrs by MTT assay; format: functional, cell-based; conditions: HCT-116, 72 h
OBSERVED_PROPERTY: pIC50
Quick note: pIC50 values are minus log10 of concentrations in mol/L.

>  <CHEMICAL_SMILES>
COc1ccc2c(c1)Cc1c(Nc3cccc(OCC(C)C)c3)n[nH]c1-2

>  <pIC50>
7.25

$$$$

Turning now to a further compound:
Inquiry: // fetch pIC50; item: COC(=O)c1cccc(Nc2n[nH]c3c2Cc2cc(OC)ccc2-3)c1 ; system: HCT-116
Reply text: 8.57
